# Assay Info: Bmi1 luciferase reporter increase in mESCs, primary screen, esBAF inhibitor project, mouse ES cells, Bmi1 luciferase knock-in, single point (AID 602393);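 note: a rise in the Bmi1 reporter signal indicates esBAF inhibition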
# Test Settings: 24 h, at 12.5 µM, 100% = twice the neutral-well signal
Screen size: about 350,000 compounds; about 7,000 (2%) were called active. Cut-off read from the data, not from the text of the source: active = activation above about 40%; inconclusive = no clear call, values can overlap the other calls; inactive = below that. What follows is part of a selection rich in actives, with near analogues and random picks from the rest.
Pick one: active, inactive

Observe how each entry below is paired with its result.
1) CO[C@H]1CN(C)C(=O)c2cc(NS(=O)(=O)CC(F)(F)F)ccc2OC[C@@H](C)N(Cc2nccs2)C[C@@H]1C: inactive
2) CCC(=O)N(C)C[C@@H]1Oc2cc(-c3ccc(C#N)cc3)ccc2S(=O)(=O)N([C@@H](C)CO)C[C@@H]1C: inactive
3) Cc1nn2c(=O)cc(COC(=O)c3ccc(NC(=O)C(C)(C)C)cc3)nc2s1: inactive
4) COc1ccc(S(=O)(=O)N(C)C[C@H]2Oc3c(NS(=O)(=O)c4ccc(F)cc4)cccc3C(=O)N([C@H](C)CO)C[C@H]2C)cc1: inactive

Lookup: Can you look up the reported call for Cc1ccc(C(=O)Nc2ccc3c(c2)OCO3)cc1S(=O)(=O)N1CCCCC1 for me?
Found: active
